Hey, just so you know, these numbers are from patent US20260125457A1.

- experimental_system: CALRdel52 (mutant calreticulin, 52 base pair deletion, Type 1) expressed with MPL on engineered cancer cells (UniProt P27797)
- Sequence (P27797 other isoform, or with tags, fused parts or gaps mutant limits assumed): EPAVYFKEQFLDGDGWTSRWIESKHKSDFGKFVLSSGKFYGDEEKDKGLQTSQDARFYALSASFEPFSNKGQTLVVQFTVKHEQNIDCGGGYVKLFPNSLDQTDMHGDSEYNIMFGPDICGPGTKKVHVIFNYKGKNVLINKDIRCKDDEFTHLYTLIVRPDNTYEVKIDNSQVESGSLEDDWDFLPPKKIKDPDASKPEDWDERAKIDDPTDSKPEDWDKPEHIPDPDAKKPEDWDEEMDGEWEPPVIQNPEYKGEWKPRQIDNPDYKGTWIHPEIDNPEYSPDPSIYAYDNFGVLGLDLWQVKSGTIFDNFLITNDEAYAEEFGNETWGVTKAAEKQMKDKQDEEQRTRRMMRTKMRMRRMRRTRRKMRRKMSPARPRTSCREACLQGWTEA
- test_protocol: cell-based or functional assay
property_measured: Cytotoxicity EC50, OCI-M2 MPL CALRdel52 cells (ng/mL)
Write the value in ng/mL as a bare number.

Consider the binder shown here: CALRB80 (MP1018C Fab x CD3W245-LH-scFv, medium affinity) (bispecific antibody, part only; not given: CD3 scFv arm and IgG1 constant regions, V domains shown, not shown: another chain or arm of the molecule; a dimerising Fc or GST; small tags and cut ends) VL: DVVMTQTPSSVSAAVGGTVTINCQASQSLYNNKNLAWYQQKPGQPPKLLIYYASALASGVSSRFKGSGSGTQFTLTISGVQSDDAATYYCQGEFNCNSADCNSFGGGTEVVVK VH: QSVEESGGRLVTPGTPLTITCTVSGFSLSSYAMSWVRQAPGKGLEWIGVIDSGGTTYYATWAKSRFTISKTSSTKVALKITSPTTEDTATYFCARESYAGYDGYGHPIPYGMDPWGPGTLVTVSS What is its recorded Cytotoxicity EC50, OCI-M2 MPL CALRdel52 cells?
20.5

Bench note: what Cytotoxicity EC50, OCI-M2 MPL CALRdel52 cells did CALRB78 (MP1016C Fab x CD3W245-LH-scFv, medium affinity) (bispecific antibody, part only; not given: anti-CD3 scFv arm, constant regions, V domains shown, not shown: another chain or arm of the molecule; a dimerising Fc or GST; small tags and cut ends) VL: DPVLTQTESPVSAAVGGTVTINCQASQSVYDDNNLAWYQQKPGQPPKRLIYPASTLASGVSSRFSGSGSGSQFTLTISDVQSDDAATYYCQGEFSCTSADCVAFGGGTEVVVK VH: QEQLKESGGRLVTPGTPLTLTCTASGFSLSNYYMSWVRQAPGKGLEWIGGISSRAGTWYASWAKGRFTISGTSSTTMDLKITSPTTEDTATYFCARGLKIWGPGTLVTVSS show?
58.1

Endpoint output: Cytotoxicity EC50, OCI-M2 MPL CALRdel52 cells of CALRB119 (MP1016 Fab x CD3W245-HL-scFv, high affinity) (bispecific antibody, part only; not given: anti-CD3 scFv arm, constant regions, V domains shown, not shown: another chain or arm of the molecule; a dimerising Fc or GST; small tags and cut ends) VL: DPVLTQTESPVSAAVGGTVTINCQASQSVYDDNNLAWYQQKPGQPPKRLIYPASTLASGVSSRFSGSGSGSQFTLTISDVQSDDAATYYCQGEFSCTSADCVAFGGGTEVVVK VH: QEQLKESGGRLVTPGTPLTLTCTASGFSLSNYYMSWVRQAPGKGLEWIGGISSRAGTWYASWAKGRFTISGTSTTMDLKITSPTTEDTATYFCARGLKIWGPGTLVTVSS . Value?
504

Value lookup for Cytotoxicity EC50, OCI-M2 MPL CALRdel52 cells; key = CALRB77 (MP1010 Fab x CD3W245-LH-scFv, medium affinity) (bispecific antibody, part only; not given: anti-CD3 scFv arm, constant regions, V domains shown, not shown: another chain or arm of the molecule; a dimerising Fc or GST; small tags and cut ends) VL: DPMLTQTPSSVSAAVGGTVTIGCQSSQSVYDKNWLSWYQQKPGQPPSRLIYDASKLESGVPSRFSGSGSGTQFTLTISGVQSDDVATYYCAGGFTGNVYAFGGGTEVVVK VH: QSVEESGGRLVTPGTPLTLTCTVSGIDLSNNAISWVRQAPGKGLEYIGVIGNTGDTYYASWAKGRFTISKTSSTTVDLKMTSLTTEDTATYFCVRGPPSYSNSVKNIWGPGTLVTISS
183

Given CALRB120 (MP1018C Fab x CD3W245-HL-scFv, high affinity) (bispecific antibody, part only; not given: CD3 scFv arm and IgG1 constant regions, V domains shown, not shown: another chain or arm of the molecule; a dimerising Fc or GST; small tags and cut ends) VL: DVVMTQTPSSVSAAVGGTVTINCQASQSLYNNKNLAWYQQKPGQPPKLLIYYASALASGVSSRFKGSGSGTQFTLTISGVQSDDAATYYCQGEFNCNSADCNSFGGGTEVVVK VH: QSVEESGGRLVTPGTPLTITCTVSGFSLSSYAMSWVRQAPGKGLEWIGVIDSGGTTYYATWAKSRFTISKTSSTKVALKITSPTTEDTATYFCARESYAGYDGYGHPIPYGMDPWGPGTLVTVSS , state its recorded Cytotoxicity EC50, OCI-M2 MPL CALRdel52 cells.
9.1
